test: Stability in an aqueous solution (HPLC residual ratio); conditions: Britton-Robinson's buffer pH 7, before incubation
label 1 means recorded Peak area (mAU × sec) initial is 5000 mAU × sec or above; label 0 means it is below 5000 mAU × sec.

Data request: Dear colleague, could you confirm whether CCC(O)C(C)C1OC1CC(C)(O)/C=C/C=C(\C)C1OC(=O)CC(O)CCC(C)(O)C(OC(=O)N2CCN(C)CC2)/C=C/C1C (stereo not drawn) [Compound 12] has Peak area (mAU × sec) initial at or above 5000 mAU × sec?
Data returned: label 1

Data request: Item CCC(OC)C(C)C1OC1CC(C)(O)/C=C/C=C(\C)C1OC(=O)CC(O)CCC(C)(O)C(OC(=O)N2CCN(C(C)C)CC2)/C=C/C1C (stereo not drawn) [Compound 130] with Peak area (mAU × sec) initial of 5000 mAU × sec or above?
Data returned: label 0

Data request: Kindly determine if Peak area (mAU × sec) initial recorded for CCC(O)C(C)C1OC1CC(C)(O)/C=C/C=C(\C)C1OC(=O)CC(O)CCC(C)(O)C(OC(=O)N2CCN(C3CCCCCC3)CC2)/C=C/C1C (stereo not drawn) [Compound 45] is above or exactly 5000 mAU × sec.
Data returned: label 1

Data request: Check the entry CCC(O)C(C)C1OC1CC(C)(O)/C=C/C=C(\C)C1OC(=O)CC(O)CCC(C)(OC)C(OC(=O)N2CCC(N3CCCCC3)CC2)/C=C/C1C (stereo not drawn) [Compound 109] : does Peak area (mAU × sec) initial equal or exceed 5000 mAU × sec?
Data returned: label 0

Data request: Is the recorded value of Peak area (mAU × sec) initial equal to or greater than 5000 mAU × sec for this molecule? CCC(OC)C(C)C1OC1CC(C)(O)/C=C/C=C(\C)C1OC(=O)CC(O)CCC(C)(O)C(OC(=O)N2CCN(C)CC2)/C=C/C1C (stereo not drawn) [Compound 131]
Data returned: label 0

Data request: Given CCC(OC)C(C)C1OC1C(O)C(C)/C=C/C=C(\C)C1OC(=O)CC(O)CCC(C)(O)C(OC(C)=O)/C=C/C1C (stereo not drawn) [FD895, reference compound] , state whether its Peak area (mAU × sec) initial is at least 5000 mAU × sec.
Data returned: label 0
